Catalogue of melting point values

Molecule	melting point
O=C1C=C(NC(=O)C(=O)c2cn(Cc3cccc(Br)c3)c3ccccc23)CO1	278 to 280 °C

May I ask what melting point has been recorded for O=C1Cn2nccc2-c2ccccc2N1 ?
236 to 240 °C

Query: melting point; subject: COc1ccc(C2(C#N)CCC(=O)C(C(N)=O)C2)cc1OCCl (configuration not stated)
154 to 155 °C

What does the record list as melting point for CCCN1N=C2C(=Cc3ccccc3)COCC2C1c1ccccc1 (configuration not stated) ?
114 to 115 °C

Query (molecule): CC(C)C1(C)N=C2c3nc4sccc4cc3C(=O)N2C1=O (configuration not stated) ; field requested: melting point
214 to 216 °C

Look at this molecule and give its reported melting point. CC1Cc2cc3c(cc2C(c2ccc([N+](=O)[O-])cc2)=NN1C(=S)NC(=O)NC1CC1)OCO3 (configuration not stated)
281 to 283 °C

What does the record list as melting point for CCc1ccc(CCc2ccc(-c3ccc(OC(F)(F)F)cc3)cc2)cc1 ?
97 °C

Fill in the blank: the reported melting point of Cc1cccc(C)c1N(CCCC(=O)O)C(=O)CCCN(C(=O)c1ccc(Cl)cc1)c1c(C)cccc1C is ____.
129 to 131 °C

Need melting point of COc1c(NC(=O)c2ccc(-c3ccc(F)cc3)cc2)ccc2cc(CN3CCCC3)cnc12 , thanks.
142 to 144 °C

What does the data say about its melting point? Entry: O=c1cc(-c2ccccc2)cc(-c2ccccc2)[nH]1
209 to 212 °C

If you can, please state the reported melting point value of O=C(O)CCc1ccc(OCc2ccc(Oc3ccccc3)cc2)c(F)c1 .
123 to 125 °C

Using the record for O=C1CCC(N2C(=O)c3cccc(CNC(=O)Nc4cccc5ccccc45)c3C2=O)C(=O)N1 (configuration not stated) , report its melting point.
250 to 252 °C

###

# Lookup of reported melting point keyed by entry

The following compounds have reported results that may help.
Compound	Measurement Type	Reported Result
COc1cc(Nc2nccc(-c3ccc4ccccc4c3)n2)cc(OC)c1OC	melting point	156 °C
O=C(O)COc1c(Cl)cc(Cl)cc1COc1cccc(OCc2ccc3cc(F)ccc3n2)c1	melting point	189 to 190 °C
CCCCc1nccn1-c1nc(Cl)nc2nc[nH]c12	melting point	247 to 248 °C

Entry CCn1c(CC(=O)O)ccc1C(=O)c1ccc(Cl)cc1 has what melting point?
149 to 153 °C

Which melting point is listed for CCc1cc(C(=O)OC)c(C2=NC(=O)C(C)(C(C)C)N2)nc1COC (stereo unspecified) ?
87 to 90 °C

I would be grateful if you could share the reported melting point for OC1CSC(Oc2ccccn2)C(O)C1O (stereo unspecified) .
196 °C

Using the record for CCN1CCN(c2ccc(CC3=C(C)C(=O)c4ccccc4C3=O)cc2)CC1 , report its melting point.
81 to 82 °C

Sample O=C1Nc2cccnc2N(CCCCN2CCCCC2)c2ccccc21 — what was its melting point?
131 to 132 °C

Form field: reported melting point of Clc1ccc(-c2cc(C3CCNCC3)n[nH]2)cc1
174 to 176 °C

Quick check: melting point of CC(C)N1CCN(C(=O)c2cc(N)cc(C(F)(F)F)c2)CC1 ?
89 to 90 °C

Endpoint output: melting point of Cc1cc(C=O)ccc1C(=O)Nc1ncc(Cl)cn1 . Value?
169 to 172 °C

Entry under review: COC(=O)c1ccc(CCCCc2c(N)nc(N)nc2O)cc1 . Reported melting point?
203 to 205 °C

What value of melting point has been recorded for this entry: CN(C)C=Nc1sc(C#N)c(Cl)c1C#N
226 °C

Look up melting point: O=C(SC(Cn1ccnc1)c1ccc(Cl)cc1Cl)c1ccccc1 (stereo unspecified)
115 to 116 °C

Data request, read-out melting point, for CC(=O)c1ccc(-c2cn3ccccc3n2)cc1
209 to 210 °C

###

Measurement Type: melting point

Molecular String	Reported Result
Cc1nc2ccccc2n2cnc(C(=O)OC(C)(C)C)c12	176 to 177 °C
CC(C)Nc1cccnc1N1CCN(C(=O)c2ccc(C(=O)Nc3nncs3)cn2)CC1	260 to 262 °C

Kindly review the next compound as well.
What does the record list as melting point for CC(=O)Nc1ccc(-c2cc(=O)c(C(=O)O)cn2-c2ccc(F)cc2)cc1 ?
249 to 250 °C

###

Measurement Type: melting point

So what's the measured melting point for this one? CCCCCCCCCCCCCCCC(=O)n1cc(F)c(=O)[nH]c1=O
98 °C

// melting point lookup, key: CC(C)C(c1ccc(O)cc1)N1CCOCC1 (stereo unspecified)
142 to 143 °C

What does the data say about its melting point? Entry: CCCOc1cccc(-c2nn(C(C)c3oc4ccccc4c(=O)c3-c3cccc(F)c3)c3ncnc(N)c23)c1 (stereo unspecified)
178 to 182 °C

Given the entry CCCn1c(=O)n2c(=O)[nH]nc2c2[nH]cnc21 , report its measured melting point.
> 290 °C

Could you share which melting point value was measured for COc1cc(F)c2c(c1)Oc1ccccc1S2(=O)=O ?
226 to 230 °C

Item under review: C=CCOc1cc(-n2c(OCC)nc(C(F)(F)F)cc2=O)c(F)cc1Br . Reported melting point?
68 to 70 °C

Consider the compound shown here: COc1cc(C)c(CCCCCCCCCCCCCCCCCCCCCC(=O)O)c(O)c1OC What is its recorded melting point?
67 to 68 °C

###

Measurement Type: melting point

Molecule	melting point
Cc1sc(I)c(C)c1CO	118 to 120 °C
Cn1cc(S(C)=O)c(=O)c2sccc21 (configuration not stated)	199 °C
Cc1nc2nc(C(F)(F)F)cc(-c3cccnc3)n2n1	195 to 197 °C
Cc1cc(-c2cc(C(F)(F)F)n3ncc(-c4cccnc4)c3n2)ccc1Cl	193 °C
Cc1cn2cc(Cl)cc(Cl)c2n1	156 to 158 °C

Item CCCn1cc2c(C3C(=O)Nc4ccc(S(=O)(=O)N(C)C)cc43)nc(Cl)nc2n1 (configuration not stated) has what recorded melting point?
> 300 °C

// melting point lookup, key: CC(=O)N1CC(CCN2CCC(c3ccccc3)CC2)c2cc3c(cc21)OCO3 (configuration not stated)
101 to 103 °C

Using the record for COc1ccc(-c2nc(C(F)(F)F)[nH]c2-c2ccc(S(C)(=O)=O)cc2)cc1OC , report its melting point.
221 to 224 °C

// lookup melting point for Nc1ccc2[nH]c(=O)cc(CCN3CCC(c4c[nH]c5ccccc45)CC3)c2c1
214 to 216 °C

Give its melting point value. Item: COc1cccc(N2CCN(c3ccc(S(=O)(=O)N[C@@H](Cc4ccccc4)C(=O)O)cc3)CC2)c1
137 to 139 °C

# melting point lookup, item Cc1ccccc1NCN1C(=O)CSC1=O
109 to 111 °C

Return reported melting point; argument: CCOC(=O)CC[C@H](NC(=O)c1ccc(CCc2cnc3nc(NC(C)=O)nc(O)c3c2)cc1)C(=O)OCC
> 200 °C

###

Measurement Type: melting point

The following molecules have reported results that may help.
Molecule	melting point
O=[N+]([O-])c1ccc(-c2noc(-c3ccccn3)n2)cc1	202 to 203 °C
CS(=O)(=O)c1ccc(Br)cc1C(F)(F)F	110 to 112 °C
CCN(CC)CCOc1ccc2cc3ccc(OCCN(CC)CC)c(CN4C(=O)c5ccccc5C4=O)c3nc2c1CN1C(=O)c2ccccc2C1=O	242 to 244 °C

I am curious: what melting point value has been reported for COc1ccc(NC(=S)N2CCn3c(c(C(N)=O)c(Cl)c3-c3ccccc3)C2)cc1 ?
176 to 178 °C

Sample COCCc1nc2c(N)nc(C)c(C)c2n1NC1CCOCC1 — what was its melting point?
110 to 120 °C

Look up melting point for this molecule: CN(c1cccc2cc(-c3nccs3)[nH]c12)S(=O)(=O)c1cccs1
201 to 202 °C

Need melting point, item CCCCCCCCCCCCCCOc1ccc(C(=O)N(Cc2cccnc2)C(C)=O)cc1
46 to 48 °C

So what's the measured melting point for this one? CC(C)c1nn(-c2ccc(Cl)cn2)cc1C=O
69 to 70 °C

So what's the measured melting point for this one? Cc1ccccc1-c1ccc(C(=O)N2Cc3ccc(C(=O)NCc4csc(-c5ccc(Cl)cc5)n4)n3Cc3ccccc32)cc1C
61 to 64 °C

Please give the measured melting point for this molecule: Fc1c(Cl)cccc1/C=C/c1noc(C(Cl)(Cl)Cl)n1
37 to 38 °C

Which value of melting point has been reported for C=CCC(NC(=O)CC)C(=O)O (stereo not drawn) in the records?
96 to 98 °C

Tell me the measured melting point of CC(C)(C)NC(=O)NCc1ccc2c(c1)C(=O)N(C1CCC(=O)NC1=O)C2=O (stereo not drawn) , please.
202 to 204 °C

Would you kindly share the measured melting point for COc1cc(NC(NC(C)C(C)(C)C)=C(C#N)S(=O)(=O)c2ccc(Cl)cc2)cc(OC)c1 (stereo not drawn) ?
178 to 179 °C
